# Target of assay: T1, recombinant human FGFR4 Fc fusion (human, UniProt P22455 144-369)
# T1 construct: 19 used; also called FGFR4c; not shown: Fc part of the FGFR-Fc fusion
# T1 sequence: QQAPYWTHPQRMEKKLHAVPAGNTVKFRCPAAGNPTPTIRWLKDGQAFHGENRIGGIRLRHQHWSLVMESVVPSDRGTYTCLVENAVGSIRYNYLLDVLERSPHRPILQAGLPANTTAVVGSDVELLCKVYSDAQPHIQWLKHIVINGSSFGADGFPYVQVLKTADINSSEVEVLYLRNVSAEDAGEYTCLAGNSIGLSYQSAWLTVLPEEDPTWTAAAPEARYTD
# Assay info: solid phase ELISA on coated FGFR-Fc
Test readout: EC50 (nM)
Entry rule: numbers only, all in nM.

Ask | Read the entry Ab15 (antibody, human IgG2, kappa, V domains shown, Format in each assay not spelled out; also called FGF#26) VH: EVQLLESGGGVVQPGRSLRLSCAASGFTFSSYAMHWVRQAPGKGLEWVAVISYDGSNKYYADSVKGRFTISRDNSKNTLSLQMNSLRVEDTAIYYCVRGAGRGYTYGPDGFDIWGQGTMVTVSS VL: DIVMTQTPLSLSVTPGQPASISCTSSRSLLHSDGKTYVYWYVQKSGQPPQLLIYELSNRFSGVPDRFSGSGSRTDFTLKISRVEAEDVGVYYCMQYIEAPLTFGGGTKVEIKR and write its reported EC50.
Reply | 7.56
